# tgt: precorrin-4 C(11)-methyltransferase (CobM), Cp-CobM (Corynebacterium pseudotuberculosis)
# Sequence (D9QAC4 1-257): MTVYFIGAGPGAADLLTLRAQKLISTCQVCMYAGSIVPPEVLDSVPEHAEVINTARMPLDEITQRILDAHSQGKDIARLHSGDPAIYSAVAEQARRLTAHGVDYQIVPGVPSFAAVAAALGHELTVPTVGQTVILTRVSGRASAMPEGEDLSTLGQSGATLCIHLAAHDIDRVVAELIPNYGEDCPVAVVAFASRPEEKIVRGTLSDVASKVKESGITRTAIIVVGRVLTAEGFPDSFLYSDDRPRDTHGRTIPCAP
# assay explanation: biochemical
# Format: binding
observable: Kd (µM)
Dear colleague, please return just the value in µM, with no unit written.

Specify Kd for "Cc1ccc(C(=O)Nc2ccc(S(=O)(=O)O)c3cc(S(=O)(=O)O)cc(S(=O)(=O)O)c23)cc1NC(=O)c1cccc(NC(=O)Nc2cccc(C(=O)Nc3cc(C(=O)Nc4ccc(S(=O)(=O)O)c5cc(S(=O)(=O)O)cc(S(=O)(=O)O)c45)ccc3C)c2)c1" and stop.
6.3

Specify Kd for C[S+](CC[C@H](N)C(=O)[O-])C[C@H]1O[C@@H](n2cnc3c(N)ncnc32)[C@H](O)[C@@H]1O (some centres unmarked) and stop.
1.4
